B1: scFv; the commonest letter at each place (parent)
chain 1: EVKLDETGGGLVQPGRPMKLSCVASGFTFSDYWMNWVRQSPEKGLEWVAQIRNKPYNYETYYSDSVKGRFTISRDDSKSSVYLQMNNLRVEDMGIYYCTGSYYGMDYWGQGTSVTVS
chain 2: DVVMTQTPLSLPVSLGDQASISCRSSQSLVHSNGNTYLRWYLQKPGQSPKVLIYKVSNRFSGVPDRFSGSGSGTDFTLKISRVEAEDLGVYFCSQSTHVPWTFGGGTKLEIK

Variants of: B1
Assay: yeast surface expression (ratio to wild type); higher = more expressed
Settings: format: scFv 4-4-20, heavy + light
endpoint label: yeast surface expression
Give your answer as a number; write no unit.

Name the reported yeast surface expression value associated with the variant chain 1 Y32M M34Q
0.437

Continuing:
Can you look up the measured yeast surface expression of chain 1 T28R D31K for me?
0.833

Fill in the blank: the reported yeast surface expression of chain 1 D31G is ____.
0.887

Using the record for chain 1 W108Y , report its yeast surface expression.
0.963

Using the record for chain 1 G100H Y103Q G109A , report its yeast surface expression.
0.293

Which yeast surface expression reading was recorded for the variant chain 1 F29G S30N ?
0.933

Need yeast surface expression of chain 1 Y103A Y107T , thanks.
1.13

// lookup yeast surface expression for chain 1 Y107E
0.803

Need yeast surface expression of chain 1 M105Q G109Y , thanks.
0.231

Bench note: what yeast surface expression did chain 1 S101V M105H show?
0.496

Query: yeast surface expression; subject: chain 1 S30H D31L
0.608

// lookup yeast surface expression for chain 1 G104R G109C
0.5

Can you look up the measured yeast surface expression of chain 1 D31C M34E for me?
0.778

Using the record for chain 1 G100V W108N , report its yeast surface expression.
0.468

Suppose we examine the variant chain 1 G104T G109D ; what yeast surface expression value has been reported?
0.235

Suppose we examine the variant chain 1 F29P D31A M34A ; what yeast surface expression value has been reported?
0.567

# lookup: yeast surface expression of chain 1 W33F N35F
0.3

Name the recorded yeast surface expression for chain 1 G100D Y103C .
0.414

State the recorded yeast surface expression for this entry: chain 1 N35E W36E
1.23

What measured yeast surface expression goes with chain 1 Y102Q Y103T ?
1.05
